Test system: 889142-216-R-J1-PDC complex spheroid viability
Assay: Anticancer human tumor 889142-216-R-J1-PDC patient-derived bladder carcinoma cell line growth inhibition [POLQ]
Settings: second compound 10 µM; first compound 0.00316 µM; active compounds read low
Reported viability, T/C by item:
Please reply with the bare figure in % and do not write the unit itself.

Query block: What value of viability, T/C has been recorded for this entry: COc1cccc(OCCCN)c1-c1cc(Nc2cnc(C#N)cn2)n[nH]1 + COC1C(OC(N)=O)C(O)C(Oc2ccc3c(O)c(NC(=O)c4ccc(O)c(CC=C(C)C)c4)c(=O)oc3c2C)OC1(C)C
Result block: 81.7

Query block: Name the reported viability, T/C value associated with the compound CC[C@@]1(O)C(=O)OCc2c1cc1n(c2=O)Cc2cc3c(CN(C)C)c(O)ccc3nc2-1 + Cc1cccc(N(C)C(=O)C2C(O)CCN2c2nc(C)cc(C(F)(F)F)c2C#N)c1
Result block: 75

Query block: Entry Cn1ncnc1[C@H]1c2n[nH]c(=O)c3cc(F)cc(c23)N[C@@H]1c1ccc(F)cc1 + COC1C(OC(N)=O)C(O)C(Oc2ccc3c(O)c(NC(=O)c4ccc(O)c(CC=C(C)C)c4)c(=O)oc3c2C)OC1(C)C : reported viability, T/C = ?
Result block: 89.8

Further cases:
Query block: So what does the record say about viability, T/C for CCc1c2c(nc3ccc(O)cc13)-c1cc3c(c(=O)n1C2)COC(=O)[C@]3(O)CC + Nc1ccc(C#CCN(C(=O)Cc2ncc(C(F)(F)F)cc2C(F)(F)F)c2ccc(F)cc2)nn1 ?
Result block: 57.4

Query block: Recorded viability, T/C for COc1cccc(OCCCN)c1-c1cc(Nc2cnc(C#N)cn2)n[nH]1 + Cc1cccc(N(C)C(=O)C2C(O)CCN2c2nc(C)cc(C(F)(F)F)c2C#N)c1 , please?
Result block: 74.8

Query block: Which viability, T/C is reported for this compound? C=CCn1c(=O)c2cnc(Nc3ccc(N4CCN(C)CC4)cc3)nc2n1-c1cccc(C(C)(C)O)n1 + COC1C(OC(N)=O)C(O)C(Oc2ccc3c(O)c(NC(=O)c4ccc(O)c(CC=C(C)C)c4)c(=O)oc3c2C)OC1(C)C
Result block: 127

* * *

Below, each of the compounds is paired with its reported viability, T/C value.
System: 889142-216-R-J1-PDC complex spheroid viability
Assay: Anticancer human tumor 889142-216-R-J1-PDC cell line growth inhibition [POLQ];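 also: spheroids exposed to compounds for seven days; 100% = DMSO vehicle control viability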
Details: second compound 3.16 µM; first compound 0.1 µM; active compounds read low
Quick note: give the figure in %, leave out the unit.

Query block: What value of viability, T/C on 889142-216-R-J1-PDC complex spheroid viability does Cn1ncnc1[C@H]1c2n[nH]c(=O)c3cc(F)cc(c23)N[C@@H]1c1ccc(F)cc1 + Nc1ccc(C#CCN(C(=O)Cc2ncc(C(F)(F)F)cc2C(F)(F)F)c2ccc(F)cc2)nn1 have?
Result block: 87.2

Query block: Request body: readout viability, T/C, system 889142-216-R-J1-PDC complex spheroid viability, query C=CCn1c(=O)c2cnc(Nc3ccc(N4CCN(C)CC4)cc3)nc2n1-c1cccc(C(C)(C)O)n1 + Nc1ccc(C#CCN(C(=O)Cc2ncc(C(F)(F)F)cc2C(F)(F)F)c2ccc(F)cc2)nn1 . Return the value.
Result block: 90.3

Query block: Form: Entry = COc1cccc(OCCCN)c1-c1cc(Nc2cnc(C#N)cn2)n[nH]1 + COC1C(OC(N)=O)C(O)C(Oc2ccc3c(O)c(NC(=O)c4ccc(O)c(CC=C(C)C)c4)c(=O)oc3c2C)OC1(C)C | System = 889142-216-R-J1-PDC complex spheroid viability | viability, T/C = ____
Result block: 38.2

Query block: Look up viability, T/C with 889142-216-R-J1-PDC complex spheroid viability for this compound: O=C(c1cc(Cc2n[nH]c(=O)c3ccccc23)ccc1F)N1CCN(C(=O)C2CC2)CC1 + Nc1ccc(C#CCN(C(=O)Cc2ncc(C(F)(F)F)cc2C(F)(F)F)c2ccc(F)cc2)nn1
Result block: 92.4

Query block: State its viability, T/C on 889142-216-R-J1-PDC complex spheroid viability: COc1cc2cc(C(=O)CCC(=O)O)sc2cc1OC + Cc1cccc(N(C)C(=O)C2C(O)CCN2c2nc(C)cc(C(F)(F)F)c2C#N)c1
Result block: 85.8

Query block: So what viability, T/C did CCc1cc2c(N3CCc4c(cc(Cn5ccnc5)cc4-c4cn(C)nc4C(F)(F)F)C3=O)ccnc2c(OC)n1 + Nc1ccc(C#CCN(C(=O)Cc2ncc(C(F)(F)F)cc2C(F)(F)F)c2ccc(F)cc2)nn1 get with 889142-216-R-J1-PDC complex spheroid viability?
Result block: 104

Query block: Short answer please: viability, T/C, 889142-216-R-J1-PDC complex spheroid viability, entry COc1cc(C2c3cc4c(cc3C(OC3OC5COC(C)OC5C(O)C3O)C3COC(=O)C23)OCO4)cc(OC)c1O (configuration not stated) + Cc1cccc(N(C)C(=O)C2C(O)CCN2c2nc(C)cc(C(F)(F)F)c2C#N)c1
Result block: 81.2

Query block: Please state recorded viability, T/C (tested on 889142-216-R-J1-PDC complex spheroid viability) of COc1cc(C2c3cc4c(cc3C(OC3OC5COC(C)OC5C(O)C3O)C3COC(=O)C23)OCO4)cc(OC)c1O (configuration not stated) + Nc1ccc(C#CCN(C(=O)Cc2ncc(C(F)(F)F)cc2C(F)(F)F)c2ccc(F)cc2)nn1
Result block: 78.2

Query block: Requested read-out viability, T/C, target or system 889142-216-R-J1-PDC complex spheroid viability, entry CC1COCCN1c1cc(-c2ccnn2C)c2ccnc(-c3ccn[nH]3)c2n1 (configuration not stated) + Nc1ccc(C#CCN(C(=O)Cc2ncc(C(F)(F)F)cc2C(F)(F)F)c2ccc(F)cc2)nn1
Result block: 57.2

Query block: Short answer please: viability, T/C, 889142-216-R-J1-PDC complex spheroid viability, entry COc1ccc([C@@H](O)c2cc(-c3ncnc4cc(N5CCOCC5)ccc34)c(F)cc2Cl)nn1 + Nc1ccc(C#CCN(C(=O)Cc2ncc(C(F)(F)F)cc2C(F)(F)F)c2ccc(F)cc2)nn1
Result block: 65.4

---
Query block: Which measured viability, T/C belongs to CC1COCCN1c1cc(C2(S(C)(=N)=O)CC2)nc(-c2ccnc3[nH]ccc23)n1 (configuration not stated) + Nc1ccc(C#CCN(C(=O)Cc2ncc(C(F)(F)F)cc2C(F)(F)F)c2ccc(F)cc2)nn1 , tested on 889142-216-R-J1-PDC complex spheroid viability?
Result block: 89.3

Query block: Please provide the recorded viability, T/C for O=C(Nc1ccc(O)c(NS(=O)(=O)c2ccc(F)cc2)c1)c1ccc(-c2ccccc2)cc1 + Nc1ccc(C#CCN(C(=O)Cc2ncc(C(F)(F)F)cc2C(F)(F)F)c2ccc(F)cc2)nn1 , tested on 889142-216-R-J1-PDC complex spheroid viability.
Result block: 83.4

Query block: Look up viability, T/C with 889142-216-R-J1-PDC complex spheroid viability for this compound: COc1cccc(OCCCN)c1-c1cc(Nc2cnc(C#N)cn2)n[nH]1 + Cc1cccc(N(C)C(=O)C2C(O)CCN2c2nc(C)cc(C(F)(F)F)c2C#N)c1
Result block: 46.2

Query block: Give the reported viability, T/C for CC[C@@]1(O)C(=O)OCc2c1cc1n(c2=O)Cc2cc3c(CN(C)C)c(O)ccc3nc2-1 + Nc1ccc(C#CCN(C(=O)Cc2ncc(C(F)(F)F)cc2C(F)(F)F)c2ccc(F)cc2)nn1 (system: 889142-216-R-J1-PDC complex spheroid viability).
Result block: 52.6

Query block: GET /values?readout=viability, T/C&system=889142-216-R-J1-PDC complex spheroid viability&item= CC1COCCN1c1cc(-c2ccnn2C)c2ccnc(-c3ccn[nH]3)c2n1 (configuration not stated) + Cc1cccc(N(C)C(=O)C2C(O)CCN2c2nc(C)cc(C(F)(F)F)c2C#N)c1
Result block: 56.4

Query block: Query the reported viability, T/C for 889142-216-R-J1-PDC complex spheroid viability; item: CCc1cc2c(N3CCc4c(cc(Cn5ccnc5)cc4-c4cn(C)nc4C(F)(F)F)C3=O)ccnc2c(OC)n1 + Cc1cccc(N(C)C(=O)C2C(O)CCN2c2nc(C)cc(C(F)(F)F)c2C#N)c1
Result block: 107

* * *

System: 889142-216-R-J1-PDC complex spheroid viability
Experiment: Anticancer human tumor 889142-216-R-J1-PDC cell line growth inhibition [POLQ];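 also: spheroids exposed to compounds for seven days; 100% = DMSO vehicle control viability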
Conditions: second compound 0.316 µM; first compound 0.316 µM; active compounds read low
// reported viability, T/C for each item listed
Note: unit % is implicit; provide only the numeric part.

Worked set:
Query block: For the compound shown here, COc1cc2cc(C(=O)CCC(=O)O)sc2cc1OC + COC1C(OC(N)=O)C(O)C(Oc2ccc3c(O)c(NC(=O)c4ccc(O)c(CC=C(C)C)c4)c(=O)oc3c2C)OC1(C)C , give the reported viability, T/C.
Result block: 116

Query block: # get_value(readout='viability, T/C', item= COc1cccc2c1C(=O)c1c(O)c3c(c(O)c1C2=O)CC(O)(C(=O)CO)CC3OC1CC(N)C(O)C(C)O1 (stereo unspecified) + Nc1ccc(C#CCN(C(=O)Cc2ncc(C(F)(F)F)cc2C(F)(F)F)c2ccc(F)cc2)nn1 )
Result block: 44.1

Query block: Any idea what viability, T/C was measured for C=CC(=O)N1CCN(c2nc(=O)n(-c3c(C)ccnc3C(C)C)c3nc(-c4c(O)cccc4F)c(F)cc23)C(C)C1 (stereo unspecified) + COC1C(OC(N)=O)C(O)C(Oc2ccc3c(O)c(NC(=O)c4ccc(O)c(CC=C(C)C)c4)c(=O)oc3c2C)OC1(C)C ?
Result block: 103

Query block: What value of viability, T/C has been recorded for this entry: CCCS(=O)(=O)Nc1ccc(F)c(C(=O)c2c[nH]c3ncc(-c4ccc(Cl)cc4)cc23)c1F + Nc1ccc(C#CCN(C(=O)Cc2ncc(C(F)(F)F)cc2C(F)(F)F)c2ccc(F)cc2)nn1
Result block: 87.4

Query block: // lookup viability, T/C for CCc1c2c(nc3ccc(O)cc13)-c1cc3c(c(=O)n1C2)COC(=O)[C@]3(O)CC + Nc1ccc(C#CCN(C(=O)Cc2ncc(C(F)(F)F)cc2C(F)(F)F)c2ccc(F)cc2)nn1
Result block: 23.9

Query block: Name the recorded viability, T/C for COc1cc(C2c3cc4c(cc3C(OC3OC5COC(C)OC5C(O)C3O)C3COC(=O)C23)OCO4)cc(OC)c1O (stereo unspecified) + Nc1ccc(C#CCN(C(=O)Cc2ncc(C(F)(F)F)cc2C(F)(F)F)c2ccc(F)cc2)nn1 .
Result block: 78.8

Further cases:
Query block: // viability, T/C lookup, key: CCc1cc2c(N3CCc4c(cc(Cn5ccnc5)cc4-c4cn(C)nc4C(F)(F)F)C3=O)ccnc2c(OC)n1 + Cc1cccc(N(C)C(=O)C2C(O)CCN2c2nc(C)cc(C(F)(F)F)c2C#N)c1
Result block: 130

Query block: What viability, T/C value was documented for this compound, CNCc1ccc(-c2[nH]c3cc(F)cc4c3c2CCNC4=O)cc1 + Nc1ccc(C#CCN(C(=O)Cc2ncc(C(F)(F)F)cc2C(F)(F)F)c2ccc(F)cc2)nn1 ?
Result block: 78.2

Query block: # viability, T/C lookup, item COc1cccc(OCCCN)c1-c1cc(Nc2cnc(C#N)cn2)n[nH]1 + Nc1ccc(C#CCN(C(=O)Cc2ncc(C(F)(F)F)cc2C(F)(F)F)c2ccc(F)cc2)nn1
Result block: 56.8

Query block: Item CC1COCCN1c1cc(-c2ccnn2C)c2ccnc(-c3ccn[nH]3)c2n1 (stereo unspecified) + Nc1ccc(C#CCN(C(=O)Cc2ncc(C(F)(F)F)cc2C(F)(F)F)c2ccc(F)cc2)nn1 has what recorded viability, T/C?
Result block: 52.7

Query block: Report viability, T/C for CC1COCCN1c1cc(C2(O)CC3CCC(C2)O3)c2cnn(-c3ccn[nH]3)c2n1 (stereo unspecified) + Nc1ccc(C#CCN(C(=O)Cc2ncc(C(F)(F)F)cc2C(F)(F)F)c2ccc(F)cc2)nn1 please.
Result block: 40.9

Where do these numbers come from? They come from PubChem BioAssay AID1963831.
